# target system: T1, MHC class I allele B*0702 monomer (human, biotinylated, bound to streptavidin-coated plate)
# T1 construct: also called B7; HLA-B7
# protocol details: iTopia, multiparametric iScore
property label: iScore
Lab note: jot the number down without any unit.

Below: 4 binders and their reported iScore.
- binder: "IFLLVLYLN [5T4 9-mer peptide 185]"
  number: 0
- binder: "SYVFLGIVL [5T4 9-mer peptide 178]"
  number: 0.045
- binder: "GLPHIRVFL [5T4 9-mer peptide 142]"
  number: 0.075
- binder: "ADMVTWLKE [5T4 9-mer peptide 152]"
  number: 0

Attention now turns to another entry.
Please report the recorded iScore for LIGAIFLLV [5T4 9-mer peptide 183] . 0
